These entries and their values trace back to patent US12473308B2.

- Test Name: Quantum yield in aqueous solution (Tris) and in the presence of surfactants
- Format: physicochemical
- Condition Set: 10 mM SDBS
Documented φSBDS (quantum yield) across a set of compounds
In your answer, state the number alone without any accompanying words.

Examples from the recorded data:
COc1cc2c(cc1C#Cc1ccc(C)cc1)[Si](c1ccccc1)(c1ccccc1)c1cc(C#Cc3ccc(C)cc3)c(OC)cc1-2	0.56
COc1cc2c(cc1C#Cc1cccc(F)c1)[Si](c1ccccc1)(c1ccccc1)c1cc(C#Cc3cccc(F)c3)c(OC)cc1-2	0.49
COc1ccc2cc(C#Cc3c[c]4c(cc3OC)-c3cc(OC)c(C#Cc5ccc6cc(OC)ccc6c5)c[c]3[Ge]4([c]3ccccc3)[c]3ccccc3)ccc2c1	0.47

Let us examine a further case.
Requested read-out: φSBDS (quantum yield). Entry: COc1cc2c(cc1C#Cc1ccc(-c3ccccc3)cc1)[Si](c1ccccc1)(c1ccccc1)c1cc(C#Cc3ccc(-c4ccccc4)cc3)c(OC)cc1-2
0.73
